- System: OVCAR-5 ovarian
- PROCEDURE SUMMARY: NCI tumour cell line growth inhibition, 48 h; in the data active = GI50 below about 0.43 µM; inactive = the rest
Classes used: active, inactive

{"COMPOUND": "Cc1ccc(-c2nc3nc(-c4ccccc4)nc(N4CCNCC4)c3o2)cc1", "CATEGORY": "inactive"}
{"COMPOUND": "COc1ccc2nc3cccc([N+](=O)[O-])c3c(NCCCO)c2c1", "CATEGORY": "active"}
{"COMPOUND": "O=c1c(O)c(-c2ccc(O)c(O)c2)oc2cc(O)cc(O)c12", "CATEGORY": "inactive"}
{"COMPOUND": "CC(C)(C)c1[nH]nc2c1C(c1cc3ccccc3[nH]c1=O)Nc1cc(C(=O)OCc3ccccc3)ccc1N2 (stereo not given)", "CATEGORY": "inactive"}
{"COMPOUND": "Cn1cc(-c2csc(-c3cn(CCCN4CCCCC4)c4ccccc34)n2)c2cccnc21", "CATEGORY": "inactive"}

----------
Examples of compounds with documented GI50 follow.
- Tested on: U251 CNS

{"COMPOUND": "COC(=O)C1=C(C)NC(C)=C(C(=O)OCC(C)C)C1c1ccccc1[N+](=O)[O-] (centres undefined)", "GI50": "4.27 µM"}
{"COMPOUND": "Cn1cccc1-c1cc(-c2ccc(Br)cc2)[nH]c(=O)c1C#N", "GI50": "> 100 µM"}
{"COMPOUND": "CC(=O)[CH-]C(=O)c1ccccc1.CC(=O)[CH-]C(=O)c1ccccc1.CC(=O)[CH-]C(=O)c1ccccc1.[In+3]", "GI50": "22.8 µM"}
{"COMPOUND": "Cn1cc(-c2csc(-c3cn(CCCN4CCCCC4)c4ccccc34)n2)c2cccnc21", "GI50": "1.87 µM"}
{"COMPOUND": "CC1=C(CCC(C)NCc2ccc(OCCCN3CCCCC3)cc2)C(C)(C)CCC1 (centres undefined)", "GI50": "1.57 µM"}
{"COMPOUND": "C=C1CC[C@@H]2[C@](C)(COC(C)=O)[C@H](OC(C)=O)CC[C@@]2(C)[C@@H]1CC(Nc1ccc(S(=O)(=O)Nc2ccc(Cl)nn2)cc1)C1=CCOC1=O (some centres undefined)", "GI50": "1.68 µM"}
{"COMPOUND": "CCC[CH2][Sn]1([CH2]CCC)[O]C2C(CO)OC(n3ccc(N)nc3=O)C2[O]1 (centres undefined)", "GI50": "1.52 µM"}
{"COMPOUND": "COc1ccc(CC(=O)c2ccc(O)cc2O)cc1", "GI50": "> 100 µM"}
{"COMPOUND": "N#CSCc1ccc(Cl)c(CSC#N)c1", "GI50": "9.12 µM"}

----------
- Test system: PC-3 prostate
- PROCEDURE SUMMARY: NCI tumour cell line growth inhibition, 48 h

{"COMPOUND": "Cc1[nH]c(=O)nc(Nc2ccc(Cl)cc2)c1C(=O)N1CCN(CCO)CC1", "SUBJECT OF TEST": "PC-3 prostate", "TGI": "> 100 µM"}
{"COMPOUND": "Cc1nn(C)c(COc2ccc(N3CCN(S(=O)(=O)N(C)C)CC3)cc2)c1-c1cccc2c(CCCOc3cccc4ccccc34)c(C(=O)O)n(CCN3CCOCC3)c12", "SUBJECT OF TEST": "PC-3 prostate", "TGI": "10.7 µM"}
{"COMPOUND": "CCOC1CC(C)N(C(=O)c2ccccc2)O1 (centres undefined)", "SUBJECT OF TEST": "PC-3 prostate", "TGI": "> 100 µM"}
{"COMPOUND": "O=c1cc(-c2ccccc2)[nH]c2nccn12", "SUBJECT OF TEST": "PC-3 prostate", "TGI": "> 10 µM"}
{"COMPOUND": "O=[N+]([O-])c1ccc(NNN=Nc2ccc(-c3nc4ccccc4s3)cc2)c([N+](=O)[O-])c1", "SUBJECT OF TEST": "PC-3 prostate", "TGI": "73.3 µM"}
{"COMPOUND": "CC1(C)[C@@H]2C[C@H]1c1cnc(-c3ccccn3)cc1C2CCCCC[C@@H]1c2cc(-c3ccccn3)ncc2[C@@H]2C[C@H]1C2(C)C (some centres undefined)", "SUBJECT OF TEST": "PC-3 prostate", "TGI": "> 100 µM"}
{"COMPOUND": "Cc1cc(S(=O)(=O)/N=C(\\[N-]S(=O)(=O)c2cc(Cl)sc2Cl)[n+]2ccc(N(C)C)cc2)c(S)cc1Cl", "SUBJECT OF TEST": "PC-3 prostate", "TGI": "> 100 µM"}
{"COMPOUND": "c1ccc([I+]c2ccccc2)cc1", "SUBJECT OF TEST": "PC-3 prostate", "TGI": "> 100 µM"}
{"COMPOUND": "CCOc1ccc(N/C(=C(/C(Cl)=C(/Cl)NC(C)(C)C)[N+](=O)[O-])n2nnc3ccccc32)cc1", "SUBJECT OF TEST": "PC-3 prostate", "TGI": "83.5 µM"}

Recorded values, source PubChem BioAssay (NCI).
